- Tested on: MDA-MB-231 breast
- Assay remarks: NCI tumour cell line growth inhibition, 48 h
Property: TGI

Give TGI for "COC(=O)/C(=C/c1ccc(OC)cc1)c1cc(OC)c(OC)c(OC)c1" tested on MDA-MB-231 breast.
> 100 µM

Give MDA-MB-231 breast TGI for the following compound: "COc1ccc(-c2cc(-c3ccc(Nc4ccnc5cc(C(F)(F)F)ccc45)cc3)nc(N)c2C#N)c2ccccc12"
> 100 µM

Output reported TGI of the compound "CCOP(=O)(OCC)/C(C#N)=C(\C)c1ccco1" on MDA-MB-231 breast.
> 10 µM

Find TGI for "CC(=O)Nc1ccc(C(=O)COc2cccc(/C=C3\CCc4ccccc4C3=O)c2)cc1" on MDA-MB-231 breast and write it down.
85.9 µM

Write down measured TGI (MDA-MB-231 breast) for this compound. "COc1ccc(N=C(SSC(=Nc2ccc(OC)cc2)c2ccc([N+](=O)[O-])o2)c2ccc([N+](=O)[O-])o2)cc1"
7.33 µM

Answer for every listed entry: what is its TGI? The entries follow.
1. Cc1cc(N(CCCl)CCCl)ccc1/C=N\NC(=O)c1cccnc1
2. CCCCCCCCCCCCCCCC(=O)OCC(COP(=O)(O)OCCNC(=O)CCSSc1ccccn1)OC(=O)CCCCCCCCCCCCCCC (centres undefined)
3. COc1cc2nccc(Oc3ccc(NC(=O)C4(C(=O)Nc5ccc(F)cc5)CC4)cc3)c2cc1OC
4. c1csc(-c2[nH]nc3c2CCc2ccccc2-3)c1
5. N/N=C(\N)SCc1ccc(N=C=S)cc1
6. O=C(c1ccccc1)c1ccc(N2C(=O)C3C4c5ccccc5C(/C=C/C(=O)c5ccccn5)(c5ccccc54)C3C2=O)cc1 (centres undefined)

["> 100 µM", "> 100 µM", "> 40.6 µM", "19.5 µM", "> 100 µM", "6.4 µM"]

I have 3 compounds here; please give me TGI for each one.
1. CN(C)c1ccc(/C=C2\CCCCCC2=O)cc1
2. O=C(c1ccccc1)n1c2ccc(Br)cc2c2nc3ccccc3nc21
3. O=C1OC(c2ccccc2)=N/C1=C\c1ccc(N(CCCl)CCCl)cc1

["> 100 µM", "> 100 µM", "> 100 µM"]

###

- Tested on: UACC-62 melanoma
- Assay remarks: NCI tumour cell line growth inhibition, 48 h; in the data active = GI50 below about 0.43 µM; inactive = the rest
Choose one outcome from this list and give only that: 1 (yes) for active, 0 (no) for inactive

See these solved cases before continuing.
Per the records of this test, what outcome belongs to COc1ccc(C[C@H](N)C(=O)N[C@@H]2[C@@H](CO)OC(n3cnc4c(N(C)C)ncnc43)[C@@H]2O)cc1 (stereo partly drawn) ?
1 (yes)

Which outcome was entered for the compound "ClCc1ccc(Cn2cnc3nc(Cl)nc(Cl)c32)cc1" in this test?
0 (no)

// switching to the query compound
GET /call?item= "Cc1cc(N(CCCl)CCCl)ccc1/C=N\NC(=O)c1cccnc1" returns the recorded outcome of this test.
0 (no)

###

- Test system: RPMI-8226 leukemia
- Assay remarks: NCI tumour cell line growth inhibition, 48 h
I'd be grateful if you could share measured log10(TGI) for these entries.
Heads up: the numbers are on a log10 scale; they represent TGI in µM.

Specify reported log10(TGI) for the compound shown: "CN(C)c1ccc(/C=C2\Cc3ccccc3C2=O)cc1Br"
1.93

Give recorded log10(TGI). "O=C(CCc1ccccc1)NCCc1ccc(O)c(O)c1"
1.77

Give the reported value of log10(TGI) for this record: "COc1ccc(/[N+]([O-])=C/c2ccccc2OC(=S)S)cc1"
1.79

Look up and state reported log10(TGI) for "CN1CCN(Cc2ccc(NC(=O)c3cncc(C#Cc4cnc5cccnn45)c3)cc2C(F)(F)F)CC1"
0.48

For "CS(=O)(=O)Nc1ccc(Nc2c3ccccc3nc3cc(Cl)ccc23)cc1" , write its log10(TGI).
1.41

With those in mind, consider the next compound.
Tell me measured log10(TGI) for "CCN(CCCl)c1ccc(NC(=O)c2cc(C(=O)NCCN(C)C)cc(C(=O)Nc3ccc(N(CC)CCCl)cc3)c2)cc1" please.
1.37
